# target-under-test: Carbonic anhydrase 9 (Homo sapiens, UniProt Q16790)
pKi reference
Reminder that pKi means the negative base-10 logarithm of the concentration expressed in mol/L.

Field: example entries. Status: answers known.
                                   molecule                         target_under_test  numeric_readout
0  NS(=O)(=O)c1ccc(CCNC(=O)c2ccc(OCC(O)CNCc3ccccc3)cc2)cc1 (stereo unspecified)  Carbonic anhydrase 9 (Homo sapiens, UniProt Q16790)             7.13
1  CNCC(O)COc1ccc(S(=O)(=O)NC(C)(C)C)cc1.Cl (stereo unspecified)  Carbonic anhydrase 9 (Homo sapiens, UniProt Q16790)             7.02
2  CNCC(O)COc1ccc(S(N)(=O)=O)cc1 (stereo unspecified)  Carbonic anhydrase 9 (Homo sapiens, UniProt Q16790)             7.63
3  CNCC(O)COc1ccc(S(=O)(=O)NCCOc2ccccc2)cc1 (stereo unspecified)  Carbonic anhydrase 9 (Homo sapiens, UniProt Q16790)             7.07
4  CNCC(O)COc1ccc(S(=O)(=O)NCc2ccccc2)cc1 (stereo unspecified)  Carbonic anhydrase 9 (Homo sapiens, UniProt Q16790)             7.03

# ---- query molecule ----
Ask: Notebook: pull reported pKi for Carbonic anhydrase 9 (Homo sapiens, UniProt Q16790), entry CC(C)(C)NCC(O)COc1ccc(C(=O)NCCc2ccc(S(N)(=O)=O)cc2)cc1 (stereo unspecified)
Result: 7.08

The values you see were collected from ChEMBL document CHEMBL4138309.
